For each of the compounds below, state its log10(TGI).
tested on: COLO 205 colon; test: NCI tumour cell line growth inhibition, 48 h
Scale: decimal log of TGI, TGI in µM.

// query Returns the measured log10(TGI) for the input compound. Input: COc1cc(NCc2ccccc2O)c2ncccc2c1
// result 1.89

// query Please give the measured log10(TGI) for this compound: O=c1oc2ccccc2c(O)c1C(c1ccc2c(c1)Cc1ccccc1-2)c1c(O)c2ccccc2oc1=O
// result 1.57

// query Which value of log10(TGI) has been reported for COC(=S)OC1CC(n2cnc3c(N)ncnc32)OC1CO[Si](C)(C)C(C)(C)C (stereo unspecified) in the records?
// result 1.60

// query Value lookup for log10(TGI); key = COC(=O)C1=C(O)CCCC(CCC(C)=O)=C1
// result 1.74

// query Fill in the blank: the reported log10(TGI) of CCN(CC)Cc1cc(Nc2c3ccccc3nc3c4ccccc4n(C)c23)ccc1O is ____.
// result 1.23

// query Looking for the measured log10(TGI) of O=C(Nc1cccc(O)c1)c1cccc(NC2=C(Cl)C(=O)N(Cc3ccccc3)C2=O)c1 , can you help?
// result 1.83

// query So what's the measured log10(TGI) for this one? CCCCCCCCCCCCCC(=O)C(C)N (stereo unspecified)
// result 0.59
